System: implant-bone interface
Test: Removal torque of coated implants just after coating and after 3-year storage
Assay type: in vivo
Set-up: unit not given here
Details: storage period 0 year; implants coated with 10 ml solution of 40 μg bisphosphonate
List of Removal torque values.

# compound, experimental-system, Removal torque
records = [
    ("NCCC(O)(P(=O)(O)O)P(=O)(O)O [Pamindronate]", "implant-bone interface", 99.6),
    ("O=P(O)(O)C(O)(Cn1ccnc1)P(=O)(O)O [Zolendronate]", "implant-bone interface", 104.4),
    ("O=P(O)(O)C(O)(Cc1cccnc1)P(=O)(O)O [Resendronate]", "implant-bone interface", 103.5),
    ("CCCCCN(C)CCC(O)(P(=O)(O)O)P(=O)(O)O [Ibandronate]", "implant-bone interface", 98.4),
    ("NCCCC(O)(P(=O)(O)O)P(=O)(O)O [Alendronate]", "implant-bone interface", 100.2),
]

src = patent US10188770B2
